test: protein stability index of a GFP-peptide fusion (yeast GPS) (PSI 1-4); higher = more stable; sorted into four equal gates, so the index is relative within each strain; settings: doa10∆
REPORTED_ENDPOINT: protein stability index
One number for each entry.

GAVIQLLKSTGLHPFEV [RPB4]    3.32
PELAMALRLSMEEEQQR [RPN10]    3.15
SFGNREEFINKLVKAMN [RPL7B]    2.03

Look up protein stability index for the entries below, preserving their order.
1. RMRVSVLEKYEVIGYIA [SSN3]
2. LALQRGATVFVNHLLLF [DPB4]
3. KELNEKIQKLEEDDEGE [RPN7]
4. EPPAGVALPPGSNYNPY [CYT1]
5. YDRNSNNNHKDKKLLRR [SWI1]
6. QWMVSLFNNHLNGILAD [SNF2]
7. SFATATCVTCHWNLPGE [SIR2]
8. APQLFPYGSFHQQQLQQ [DSN1]

RESULT:
1.4
1.42
1.2
2.77
3.09
1.39
1.64
2.77

* * *

Record form. Attribute: protein stability index. Fill in for each entry.
test: protein stability index of a GFP-peptide fusion (yeast GPS) (PSI 1-4); higher = more stable; sorted into four equal gates, so the index is relative within each strain; conditions: doa10∆

KIIDNPKSFLKKDQSVL [YMR129W/POM152]    3.06
AFGLGAIMSKSSLEELL [ECM29]    1.83
VVETITSLLNKVLKSGS [RRP42]    2.67
KEKEAAESPEEADVEMS [PUP2]    3.41

Please give protein stability index, item by item, for the list that follows.
1. FQLLEPLSTYNKNGNAV [PGD1]
2. KFSDLKFILQILQILNL [YML103C/NUP188]

RESULT:
[2.81, 3.05]

* * *

Kindly supply the reported protein stability index values for the records listed here.
test: protein stability index of a GFP-peptide fusion (yeast GPS) (PSI 1-4); higher = more stable; sorted into four equal gates, so the index is relative within each strain; conditions: san1∆
Give bare numbers.

Some sequences with recorded protein stability index:
SSTGVPESIDTILSSKL [SRB2]    2.93
TDNVSMYPSPTGVMIGI [PRP8]    2.02
GAVIQLLKSTGLHPFEV [RPB4]    3.07

// each listed sequence needs a value for protein stability index
1. ASVRIKDKFNQIPLHRA [NAS6]
2. SRKRGGENVFLKRISDG [SIR3]

RESULT:
[2.91, 3.07]

* * *

experiment: protein stability index of a GFP-peptide fusion (yeast GPS) (PSI 1-4); higher = more stable; sorted into four equal gates, so the index is relative within each strain; details: ubr1∆
REPORTED_ENDPOINT: protein stability index
Numbers only.

Answered cases to consult:
GIEYNRVTNTTSTDFPG [RPC40]    2.94
KLKQLLDESSEQKNTAK [YIL149C/MLP2]    2.99
LNEITNSKVNKLNIETM [DSN1]    3.08
SFPILDQCVGQVGLNFE [YMR129W/POM152]    3.02
EQWLRQFEVSDDEKNDK [SNF2]    3.09
SSFGSESLTFNEFQLQW [SWI1]    3.02
TELVDGRENFVYANNPE [SIR3]    2.95
SNSSELEPDYQAPFSTS [MED1]    3.05

Field: protein stability index. Fill in for each record below.
1. EALAFTSLVANENDKIY [YDL116W/NUP84]
2. AKLIRSAIEHTTLKSVT [RPO21]
3. PRRFGKGSRQCRVCSSH [RPS29B]
4. SENAPSASSKEFNFTNL [YAR002W/NUP60]
5. DNKIDIYQIHIPYAAKL [RPB2]

RESULT:
1: 2.93; 2: 3.04; 3: 2.91; 4: 2.99; 5: 2.92
